Experiment: SRB toxicity assay in non-tumor porcine liver primary cells
Assay type: cell-based
Details: pig, porcine liver primary cell culture (PLP1), non-tumor, PLP1 non-tumor porcine liver cells, 48h continuous treatment, SRB, mean ± SD, n = 3
outcome-measure: GI50 at 48 h (µM)
Give just the numeric value; µM need not be written.

compound | reading-unit | GI50 at 48 h
COC(=O)c1sc2cccnc2c1Nc1ccc(OC)cc1N | µM | 12.5

Task: Output GI50 at 48 h of Cc1c2ccncc2c(C)c2c1[nH]c1ccccc12 [Ellipticine, reference compound]
Output: 4

Task: Output GI50 at 48 h of `COC(=O)c1sc2cccnc2c1Nc1ccccc1N`
Output: 61.3
